# tested-on: CHK2(I157T)(h) (Homo sapiens, UniProt O96017, I157T)
# Sequence (O96017 whole entry I157T): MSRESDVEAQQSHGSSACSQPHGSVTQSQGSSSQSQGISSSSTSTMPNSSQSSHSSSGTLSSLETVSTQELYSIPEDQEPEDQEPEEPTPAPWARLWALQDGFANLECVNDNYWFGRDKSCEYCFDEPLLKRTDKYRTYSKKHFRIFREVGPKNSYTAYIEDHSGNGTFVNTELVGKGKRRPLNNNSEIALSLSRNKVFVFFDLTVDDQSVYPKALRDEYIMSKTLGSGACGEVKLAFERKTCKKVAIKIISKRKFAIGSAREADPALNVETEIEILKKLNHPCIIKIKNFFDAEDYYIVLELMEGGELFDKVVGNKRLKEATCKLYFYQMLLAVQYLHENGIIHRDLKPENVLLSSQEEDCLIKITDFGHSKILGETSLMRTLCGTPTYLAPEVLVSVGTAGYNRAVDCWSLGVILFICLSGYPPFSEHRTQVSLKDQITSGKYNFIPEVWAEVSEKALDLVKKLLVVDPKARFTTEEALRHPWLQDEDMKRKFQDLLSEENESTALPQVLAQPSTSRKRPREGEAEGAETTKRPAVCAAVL
# method-description: Kinase Profiling Assay
# Assay type: biochemical
# assay-conditions: peptide 100 μM
No end group written: not given here.
Binary call on % activity: 1 from 80% upward, -1 beneath that.

residue-sequence	cat
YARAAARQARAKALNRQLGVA (Mammal) [MMI-0200]	1
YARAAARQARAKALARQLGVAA [MMI-0100]	1
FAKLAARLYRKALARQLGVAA [MMI-0300]	-1
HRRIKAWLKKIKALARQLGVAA (Mammal) [MMI-0500]	-1
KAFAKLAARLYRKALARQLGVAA [MMI-0400]	-1

Measured values drawn from patent US20150258192A1 for this set.
